# target system: PaArr (Pseudomonas aeruginosa, UniProt O87490)
# Construct: class 1 integron gene; codon-optimized; His6-MBP tag cut off with TEV; E. coli BL21(DE3); monomer
# Sequence (O87490 entry or part of it): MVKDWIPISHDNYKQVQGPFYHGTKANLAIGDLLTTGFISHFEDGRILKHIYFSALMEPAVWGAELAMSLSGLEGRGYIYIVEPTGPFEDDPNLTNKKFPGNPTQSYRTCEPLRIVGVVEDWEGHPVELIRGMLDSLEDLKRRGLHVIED
# run description: fluorescent NAD+ conversion assay
measured metric: pIC50
// field semantics: pIC50 = negative decimal log of concentration (mol/L)

Requested read-out: pIC50. Entry: O=c1c(O)c(-c2cc(O)c(O)c(O)c2)oc2cc(O)cc(O)c12
6.33

---

# target system: MsArr (Mycolicibacterium smegmatis, UniProt A0QRS5, V47I/Y72F)
# Construct: V47I Y72F variant gene; His6-MBP tag cut off with TEV; E. coli BL21(DE3)
# Sequence (A0QRS5 entry or part of it V47I/Y72F): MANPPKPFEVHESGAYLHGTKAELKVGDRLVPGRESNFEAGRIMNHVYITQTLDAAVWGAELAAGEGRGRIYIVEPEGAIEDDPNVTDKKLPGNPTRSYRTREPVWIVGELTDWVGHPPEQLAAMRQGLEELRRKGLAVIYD
# run description: fluorescent NAD+ conversion assay
measured metric: IC50 (nM)
Write down the numeric answer in nM and omit the unit.

[
  {
    "compound": "NS(=O)(=O)c1ccc(-c2nc3ccccc3c(=O)[nH]2)cc1 [compound 2]",
    "IC50 [nM]": 2000
  }
]

Requested read-out: IC50. Entry: Nc1nc2ccc(Cl)cc2c(O)c1-c1ccccc1 [compound 1]
1300

Numbers sourced from paper doi:10.1101/2025.02.20.639278v1.
